Ref: paper PMC5612953

studyTarget: T1, phospho-MOB1(K104E/K105E), full length, recombinant (human, UniProt Q9H8S9 1-216, K104E | K105E, phosphorylated in vitro by MST2 (residues 2-308); the paper names Thr12 and Thr35 as the MST1/2 phosphorylation sites of MOB1)
T1 construct: human MOB1A, full length; source: E. coli, purified (Ni-NTA), then phosphorylated in vitro by MST2 (2-308)
T1 sequence (looked up): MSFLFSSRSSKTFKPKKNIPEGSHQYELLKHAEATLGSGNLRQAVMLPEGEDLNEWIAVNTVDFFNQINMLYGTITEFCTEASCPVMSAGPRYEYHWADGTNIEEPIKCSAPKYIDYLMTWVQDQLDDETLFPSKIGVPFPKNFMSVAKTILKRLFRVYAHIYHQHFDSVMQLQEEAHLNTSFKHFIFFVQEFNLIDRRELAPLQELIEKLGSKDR
methodSummary: ITC; 25 °C, ITC200; 25 mM HEPES pH 7.5, 200 mM NaCl, 1 mM EDTA; ~240 μM MOB1A injected (20 x 2 μl) into ~24 μM NDR1, NDR2, LATS1 or LATS2 fragment in the cell; single-site model
assaySetup: both partners purified
parameter: binding result

[[record]]
binder = "human LATS1 (residues 640-703), NTR (domain or fragment, UniProt O95835 640-703, looked up, human LATS1, residues 640-703 (NTR); also called LATS1 (640-703); LATS1 wild-type; source: E. coli BL21(DE3), purified (Ni-NTA)) KFFMEQHVENVLKSHQQRLHRKKQLENEMMRVGLSQDAQDQMRKMLCQKESNYIRLKRAKMDKS"
reportedmeasurement = "binds"

[[record]]
binder = "human LATS2 (residues 603-666), NTR (domain or fragment, UniProt Q9NRM7 603-666, looked up, human LATS2, residues 603-666 (NTR), codon-optimized synthetic gene; also called NTR of LATS2; source: E. coli BL21(DE3), purified (Ni-NTA)) KFFMEQHVENVIKTYQQKVNRRLQLEQEMAKAGLCEAEQEQMRKILYQKESNYNRLKRAKMDKS"
reportedmeasurement = "binds"

[[record]]
binder = "LATS1 (640-703, V647Y) (domain or fragment, human, UniProt O95835 640-703, looked up, human LATS1, residues 640-703 (NTR); also called LATS1(V647Y); source: E. coli BL21(DE3), purified (Ni-NTA)) KFFMEQHYENVLKSHQQRLHRKKQLENEMMRVGLSQDAQDQMRKMLCQKESNYIRLKRAKMDKS"
reportedmeasurement = "binds"

